meta.source: the NIST ThermoML archive (doi:10.1016/j.jct.2018.09.024)

Provide the recorded thermal diffusivity for the entries that follow.
Conditions: 363.15 K; 101.33 kPa; Liquid; Laser flash apparatus
Numbers only, in m2/s.

Solved entries:
MOLECULE	READOUT UNITS	QUANTITATIVE RESULT
CCCCCCCCCCC(=O)OC [methyl undecanoate]	m2/s	7.5e-08
CCCCCCC(=O)OC [methyl heptanoate]	m2/s	7.14e-08
CCCCCCCC(=O)OC [methyl octanoate]	m2/s	7.22e-08
CCCCCCCCCC(=O)OC [methyl decanoate]	m2/s	7.4e-08
CCCCCCCCCCCC(=O)OC [methyl dodecanoate]	m2/s	7.55e-08

With those in mind, consider the next molecule.
Notebook: CCCCCCCCC(=O)OC [methyl nonanoate] , thermal diffusivity read as 7.31e-08
